Each recorded value in this set is attributed to patent US20230115176A1.

Each entry below carries its recorded pIC50.
biological target: purified human C5 (Homo sapiens); assay: Red blood cell hemolysis assay, optical, absorbance 412 nm (Example 3, Table 6); format: cell-based; settings: antibody-sensitized sheep erythrocytes, 1.5% human C5 depleted sera, 0.5 nM human C5; average where replicates
Sequence (P01031 19-1676): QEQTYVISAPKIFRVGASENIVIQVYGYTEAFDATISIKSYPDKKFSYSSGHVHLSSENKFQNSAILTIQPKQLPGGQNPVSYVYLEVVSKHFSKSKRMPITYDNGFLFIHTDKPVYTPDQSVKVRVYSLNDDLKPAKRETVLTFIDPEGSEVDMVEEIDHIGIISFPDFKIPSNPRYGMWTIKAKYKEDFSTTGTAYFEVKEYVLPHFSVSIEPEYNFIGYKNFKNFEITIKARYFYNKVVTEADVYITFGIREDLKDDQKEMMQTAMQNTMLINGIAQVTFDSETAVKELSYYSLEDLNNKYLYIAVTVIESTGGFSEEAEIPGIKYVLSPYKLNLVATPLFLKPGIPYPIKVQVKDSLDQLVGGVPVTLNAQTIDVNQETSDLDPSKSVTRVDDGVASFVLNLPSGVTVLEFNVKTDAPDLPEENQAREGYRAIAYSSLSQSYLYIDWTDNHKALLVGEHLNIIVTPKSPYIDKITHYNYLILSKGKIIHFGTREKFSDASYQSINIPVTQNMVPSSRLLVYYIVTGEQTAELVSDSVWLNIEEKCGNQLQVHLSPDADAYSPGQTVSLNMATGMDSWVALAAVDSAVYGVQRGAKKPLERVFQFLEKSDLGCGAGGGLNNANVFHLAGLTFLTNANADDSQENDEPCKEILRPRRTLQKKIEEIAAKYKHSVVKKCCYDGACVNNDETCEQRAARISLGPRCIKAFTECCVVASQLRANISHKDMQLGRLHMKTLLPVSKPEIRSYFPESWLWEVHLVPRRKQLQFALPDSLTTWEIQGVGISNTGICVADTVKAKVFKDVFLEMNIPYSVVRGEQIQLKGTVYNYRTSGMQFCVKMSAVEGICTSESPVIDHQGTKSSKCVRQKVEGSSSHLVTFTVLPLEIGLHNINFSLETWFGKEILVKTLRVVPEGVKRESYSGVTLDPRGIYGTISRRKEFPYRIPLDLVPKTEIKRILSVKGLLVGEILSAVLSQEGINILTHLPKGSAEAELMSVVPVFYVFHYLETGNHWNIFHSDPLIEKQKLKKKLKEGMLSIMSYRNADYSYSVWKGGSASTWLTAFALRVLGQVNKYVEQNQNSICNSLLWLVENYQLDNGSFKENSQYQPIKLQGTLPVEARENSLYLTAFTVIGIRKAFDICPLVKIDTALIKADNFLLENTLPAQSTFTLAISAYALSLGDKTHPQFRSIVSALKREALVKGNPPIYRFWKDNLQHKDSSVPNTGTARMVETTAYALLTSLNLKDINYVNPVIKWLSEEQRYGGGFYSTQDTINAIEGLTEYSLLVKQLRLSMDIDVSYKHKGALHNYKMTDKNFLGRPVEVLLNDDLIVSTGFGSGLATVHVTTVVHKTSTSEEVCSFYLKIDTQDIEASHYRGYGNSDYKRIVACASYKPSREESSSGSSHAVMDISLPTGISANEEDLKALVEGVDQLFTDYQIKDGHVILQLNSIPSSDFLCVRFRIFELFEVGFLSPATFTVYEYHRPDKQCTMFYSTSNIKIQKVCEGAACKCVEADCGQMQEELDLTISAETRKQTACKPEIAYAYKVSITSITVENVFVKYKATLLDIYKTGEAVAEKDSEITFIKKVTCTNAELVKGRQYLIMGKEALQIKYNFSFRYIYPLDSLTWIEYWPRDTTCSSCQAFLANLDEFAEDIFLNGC
pIC50: −log10 of the molar value.

compound | pIC50
COc1ccc(NC(=O)NCc2ccc(O)cc2)cc1OCCCC(C)C | 6.40
COc1ccc(NC(=O)N[C@@H](CO)c2ccccc2)cc1OCC(C)CC(C)C (stereo partly shown) | 5.83
COc1ccc(NC(=O)NCc2ccccc2CO)cc1OCCCC(C)C | 5.54
COc1ccc(NC(=O)NC(C)c2cccnc2)cc1OCCCC(C)C (stereo not shown) | 5.88
COc1ccc(NC(=O)N[C@@H](CO)c2ccccc2)cc1OCCC1CCCC1 | 6.35
COc1ccc(NC(=O)N[C@@H](COC(C)=O)c2ccccc2)cc1OCCCC(C)C | 5.25
COc1ccc(NC(=O)N[C@@H](CO)c2ccccc2)cc1OCCOC1CCC1 | 5.47
COc1ccc(NC(=O)NC(CO)c2ccc(F)cc2)cc1OCCCC(C)C (stereo not shown) | 6.32
COc1ccc(NC(=O)NCc2ccc(S(N)(=O)=O)cc2)cc1OCCCC(C)C | 5.59
COc1ccc(NC(=O)N[C@@H](CO)c2ccccc2)cc1OCCC(C)C | 5.06
